- System: Chromobacterium violaceum
- test-method-notes: Inhibition of quorum sensing system in Chromobacterium violaceum ATCC 31532 assessed as inhibition of violacein pigment production measured per disk after 48 hrs by NCCLS disk diffusion method
Quick reference: INH of the listed items.
Numeric only. Scale: µg

smi=C=C(C)[C@H]1CC/C(C)=C/CC[C@@](C)(Cl)[C@H](O)CC/C(CO)=C/[C@@H]1O target_under_test="Chromobacterium violaceum" readout_label=INH experimental_result=30
smi=C=C(C)[C@@H]1CC[C@@H](C)[C@H](OC(C)=O)CC[C@@H](C)CC(=O)C[C@@H](C)[C@H](OC(C)=O)C1 target_under_test="Chromobacterium violaceum" readout_label=INH experimental_result=15
smi=C=C(C)[C@H]1CC/C(C)=C/CC[C@](C)(O)[C@H](O)CC/C(COC(C)=O)=C/[C@@H]1O target_under_test="Chromobacterium violaceum" readout_label=INH experimental_result=7.5
smi=O=c1cc(CO)occ1O target_under_test="Chromobacterium violaceum" readout_label=INH experimental_result=90
smi=C=C(C)[C@@H]1CC[C@@H](C)[C@H](O)CC[C@H](C)CC(=O)C[C@@H](C)[C@H](O)C1 target_under_test="Chromobacterium violaceum" readout_label=INH experimental_result=7.5
smi=C=C1CC/C=C(\C)CC[C@H](C(=C)C)[C@@H](OC(C)=O)/C=C(/COC(C)=O)CC[C@H]1O target_under_test="Chromobacterium violaceum" readout_label=INH experimental_result=7.5
smi=C=C(C)[C@@H]1CC[C@@H](C)C(=O)CC[C@H](C)CC(=O)C[C@@H](C)[C@H](OC(C)=O)C1 target_under_test="Chromobacterium violaceum" readout_label=INH experimental_result=7.5

Please look at the following compound next.
Measured on Chromobacterium violaceum, "C=C(C)[C@@H]1CC[C@@H](C)[C@H](OC(C)=O)CC[C@H](C)CC(=O)C[C@@H](C)[C@H](OC(C)=O)C1" has a documented INH of 30
